Source listed as patent US20240139211A1.

measuredTarget: OCT2 (Homo sapiens, UniProt O15244)
Sequence (O15244 1-555): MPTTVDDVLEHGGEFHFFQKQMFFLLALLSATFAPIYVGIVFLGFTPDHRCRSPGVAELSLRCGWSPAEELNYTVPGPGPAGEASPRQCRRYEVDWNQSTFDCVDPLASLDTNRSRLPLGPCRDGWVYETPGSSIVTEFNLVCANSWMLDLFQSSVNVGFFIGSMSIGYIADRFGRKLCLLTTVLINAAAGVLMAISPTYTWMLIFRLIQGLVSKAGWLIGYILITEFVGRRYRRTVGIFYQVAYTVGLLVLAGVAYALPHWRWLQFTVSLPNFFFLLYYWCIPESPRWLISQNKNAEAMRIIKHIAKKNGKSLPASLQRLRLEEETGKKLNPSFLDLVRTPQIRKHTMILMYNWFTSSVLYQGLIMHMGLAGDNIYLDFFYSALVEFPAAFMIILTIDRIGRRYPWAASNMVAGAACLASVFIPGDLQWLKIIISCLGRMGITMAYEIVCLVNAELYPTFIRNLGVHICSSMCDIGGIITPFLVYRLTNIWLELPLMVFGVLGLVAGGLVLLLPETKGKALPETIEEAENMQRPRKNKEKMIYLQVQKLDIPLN
procedureDetails: Inhibitor of OCT2, probe substrate uptake
conditionSet: read-out: Estimated IC50, OCT2; estimated from two concentrations
parameter: potency estimated from few doses

potency estimated from few doses of O=C(O)Cc1ccccc1 on OCT2 (Homo sapiens, UniProt O15244)? < 7.5 mM

---

measuredTarget: OATP1B1 (Homo sapiens, UniProt Q9Y6L6)
Sequence (Q9Y6L6 whole entry): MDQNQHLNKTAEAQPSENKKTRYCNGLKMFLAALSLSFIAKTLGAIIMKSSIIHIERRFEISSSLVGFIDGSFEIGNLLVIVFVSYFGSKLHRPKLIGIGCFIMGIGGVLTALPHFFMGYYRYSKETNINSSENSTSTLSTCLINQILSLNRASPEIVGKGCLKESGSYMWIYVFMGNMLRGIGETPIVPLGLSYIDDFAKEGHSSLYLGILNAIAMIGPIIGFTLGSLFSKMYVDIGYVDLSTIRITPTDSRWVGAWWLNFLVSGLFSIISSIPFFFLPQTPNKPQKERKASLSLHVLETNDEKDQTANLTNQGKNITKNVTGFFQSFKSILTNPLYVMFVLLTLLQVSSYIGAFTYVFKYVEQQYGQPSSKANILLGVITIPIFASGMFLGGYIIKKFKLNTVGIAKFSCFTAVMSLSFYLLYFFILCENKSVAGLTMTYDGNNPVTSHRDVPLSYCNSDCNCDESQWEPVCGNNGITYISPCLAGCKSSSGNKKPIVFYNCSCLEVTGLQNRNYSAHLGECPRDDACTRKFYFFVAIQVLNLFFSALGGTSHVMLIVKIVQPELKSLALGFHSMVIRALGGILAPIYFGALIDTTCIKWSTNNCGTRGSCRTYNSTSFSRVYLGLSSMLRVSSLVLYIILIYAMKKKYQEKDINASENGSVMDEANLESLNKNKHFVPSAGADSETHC
procedureDetails: Inhibitor of OATP1B1, probe substrate uptake
conditionSet: read-out: Estimated IC50, OATP1B1; estimated from two concentrations
parameter: potency estimated from few doses

Data request, read-out potency estimated from few doses, for O=C(O)Cc1ccccc1 > 7.5 mM

---

Test system: CYP2B6 mRNA
procedureDetails: CYP2B6 gene expression induction in hepatocyte cultures
conditionSet: read-out: EC50, CYP2B6 gene expression; Donor 3
parameter: EC50 (µM)
Write it as a number; the unit µM goes unstated.

Data request, read-out EC50, for C[C@H](CCC(=O)NCC(=O)O)[C@H]1CC[C@H]2[C@@H]3[C@@H](O)C[C@@H]4C[C@H](O)CC[C@]4(C)[C@H]3CC[C@]12C 1.48

---

Test system: CYP3A4 mRNA
procedureDetails: in vitro
conditionSet: human, hepatocyte cultures
parameter: fold induction at 72 h
Answer with a number only.

Data request, read-out fold induction at 72 h, for C[C@H](CCC(=O)NCC(=O)O)[C@H]1CC[C@H]2[C@@H]3[C@@H](O)C[C@@H]4C[C@H](O)CC[C@]4(C)[C@H]3CC[C@]12C 2.44

---

measuredTarget: P-gp (Homo sapiens, UniProt P08183)
Sequence (P08183 whole entry): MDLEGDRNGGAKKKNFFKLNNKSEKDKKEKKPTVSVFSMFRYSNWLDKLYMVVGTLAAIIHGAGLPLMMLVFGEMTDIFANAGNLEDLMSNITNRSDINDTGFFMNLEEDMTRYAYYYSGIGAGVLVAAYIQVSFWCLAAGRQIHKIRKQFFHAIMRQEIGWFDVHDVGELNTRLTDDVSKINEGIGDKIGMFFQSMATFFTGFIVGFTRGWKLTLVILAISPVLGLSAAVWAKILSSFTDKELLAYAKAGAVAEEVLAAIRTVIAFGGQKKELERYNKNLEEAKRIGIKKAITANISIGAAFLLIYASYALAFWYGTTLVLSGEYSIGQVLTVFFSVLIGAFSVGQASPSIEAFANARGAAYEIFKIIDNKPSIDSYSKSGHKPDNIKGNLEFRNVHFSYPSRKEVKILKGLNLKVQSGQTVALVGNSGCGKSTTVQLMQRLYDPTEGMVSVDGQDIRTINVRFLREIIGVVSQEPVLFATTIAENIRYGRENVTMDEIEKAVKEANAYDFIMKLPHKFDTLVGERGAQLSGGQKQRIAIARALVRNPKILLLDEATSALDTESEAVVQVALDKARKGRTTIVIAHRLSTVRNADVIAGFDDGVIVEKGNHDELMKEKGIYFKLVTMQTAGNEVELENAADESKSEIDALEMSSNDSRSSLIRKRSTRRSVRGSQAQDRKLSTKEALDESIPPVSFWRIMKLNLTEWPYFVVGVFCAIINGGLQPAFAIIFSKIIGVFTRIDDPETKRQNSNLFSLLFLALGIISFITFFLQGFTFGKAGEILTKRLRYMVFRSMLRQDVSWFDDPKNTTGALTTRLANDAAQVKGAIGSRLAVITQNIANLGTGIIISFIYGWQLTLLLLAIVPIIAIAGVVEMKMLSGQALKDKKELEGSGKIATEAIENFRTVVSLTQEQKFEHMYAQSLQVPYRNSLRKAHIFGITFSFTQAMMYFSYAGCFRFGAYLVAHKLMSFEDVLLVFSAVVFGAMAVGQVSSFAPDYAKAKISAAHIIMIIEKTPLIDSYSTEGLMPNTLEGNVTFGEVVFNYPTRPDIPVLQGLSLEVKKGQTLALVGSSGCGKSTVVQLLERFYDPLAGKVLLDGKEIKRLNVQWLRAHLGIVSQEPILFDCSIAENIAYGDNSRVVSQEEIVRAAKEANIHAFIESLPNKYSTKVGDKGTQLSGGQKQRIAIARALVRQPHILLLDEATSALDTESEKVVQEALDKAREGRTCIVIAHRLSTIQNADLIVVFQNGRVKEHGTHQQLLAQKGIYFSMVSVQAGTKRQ
procedureDetails: in vitro
conditionSet: Caco-2 cells, probe 3H-digoxin
parameter: potency estimated from few doses

potency estimated from few doses of C[C@H](CCC(=O)NCC(=O)O)[C@H]1CC[C@H]2[C@@H]3[C@@H](O)C[C@@H]4C[C@H](O)CC[C@]4(C)[C@H]3CC[C@]12C on P-gp (Homo sapiens, UniProt P08183)? < 10 µM

---

procedureDetails: in vitro
conditionSet: human, Caco-2
parameter: efflux ratio at 10 μM
Answer with a number only.

Data request, read-out efflux ratio at 10 μM, for C[C@H](CCC(=O)NCC(=O)O)[C@H]1CC[C@H]2[C@@H]3[C@@H](O)C[C@@H]4C[C@H](O)CC[C@]4(C)[C@H]3CC[C@]12C [Glycoursodeoxycholic acid, glycoursodeoxycholic acid] 2.85

---

measuredTarget: UniProt:Q8TCC7
Sequence (Q8TCC7 whole entry): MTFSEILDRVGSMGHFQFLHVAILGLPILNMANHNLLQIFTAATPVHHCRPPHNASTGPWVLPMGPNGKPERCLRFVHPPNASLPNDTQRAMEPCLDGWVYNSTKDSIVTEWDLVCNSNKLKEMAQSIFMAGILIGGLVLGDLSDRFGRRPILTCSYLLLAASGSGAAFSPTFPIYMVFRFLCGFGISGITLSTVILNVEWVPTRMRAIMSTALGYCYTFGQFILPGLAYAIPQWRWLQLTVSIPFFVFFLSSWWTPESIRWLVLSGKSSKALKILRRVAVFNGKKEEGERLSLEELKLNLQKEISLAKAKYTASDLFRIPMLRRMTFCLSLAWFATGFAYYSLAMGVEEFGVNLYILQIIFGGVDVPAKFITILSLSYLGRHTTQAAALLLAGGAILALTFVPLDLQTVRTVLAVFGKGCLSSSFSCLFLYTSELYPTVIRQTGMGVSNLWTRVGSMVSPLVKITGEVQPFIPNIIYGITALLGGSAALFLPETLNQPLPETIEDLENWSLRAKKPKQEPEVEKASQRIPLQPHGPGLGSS
procedureDetails: in vitro
parameter: potency estimated from few doses

{"molecule": "C[C@H](CCC(=O)NCC(=O)O)[C@H]1CC[C@H]2[C@@H]3[C@@H](O)C[C@@H]4C[C@H](O)CC[C@]4(C)[C@H]3CC[C@]12C", "observedResult": "< 100 µM"}

API: the following record is the query input.
Data request, read-out potency estimated from few doses, for O=C(O)CCCc1ccccc1 [PB, sodium phenylbutyrate] < 25 µM

---

Test system: CYP2B6 mRNA
procedureDetails: in vitro
conditionSet: human
parameter: EC50 at 72 h (µM)
Write it as a number; the unit µM goes unstated.

Data request, read-out EC50 at 72 h, for O=C(O)Cc1ccccc1 19.5

---

measuredTarget: OATP1B3 (Homo sapiens)
Sequence (Q9NPD5 whole entry): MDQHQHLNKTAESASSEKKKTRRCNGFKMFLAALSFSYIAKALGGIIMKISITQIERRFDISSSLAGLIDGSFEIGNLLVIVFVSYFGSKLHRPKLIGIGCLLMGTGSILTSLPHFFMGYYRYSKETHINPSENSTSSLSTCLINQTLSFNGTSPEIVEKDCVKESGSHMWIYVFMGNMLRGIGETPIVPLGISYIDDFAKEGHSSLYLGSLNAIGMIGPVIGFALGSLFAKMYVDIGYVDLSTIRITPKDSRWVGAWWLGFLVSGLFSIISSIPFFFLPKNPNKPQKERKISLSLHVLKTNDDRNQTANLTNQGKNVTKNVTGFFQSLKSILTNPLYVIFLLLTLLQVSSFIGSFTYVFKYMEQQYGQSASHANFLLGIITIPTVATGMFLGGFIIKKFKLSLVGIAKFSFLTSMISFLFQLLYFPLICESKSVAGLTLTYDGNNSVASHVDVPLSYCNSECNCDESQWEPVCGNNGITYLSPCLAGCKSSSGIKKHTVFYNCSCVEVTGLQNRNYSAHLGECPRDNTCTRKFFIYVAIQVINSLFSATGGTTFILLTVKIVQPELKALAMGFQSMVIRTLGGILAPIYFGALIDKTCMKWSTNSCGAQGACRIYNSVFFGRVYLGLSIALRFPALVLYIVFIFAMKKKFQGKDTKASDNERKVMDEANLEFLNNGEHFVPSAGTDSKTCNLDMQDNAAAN
procedureDetails: in vitro
parameter: potency estimated from few doses

potency estimated from few doses of C[C@H](CCC(=O)NCC(=O)O)[C@H]1CC[C@H]2[C@@H]3[C@@H](O)C[C@@H]4C[C@H](O)CC[C@]4(C)[C@H]3CC[C@]12C on OATP1B3 (Homo sapiens)? < 100 µM

---

measuredTarget: UniProtKB P08183
procedureDetails: in vitro
parameter: potency estimated from few doses

Data request, read-out potency estimated from few doses, for O=C(O)Cc1ccccc1 [Phenylacetic acid, phenylacetic acid] > 7.5 mM

---

measuredTarget: CYP2B6 (Homo sapiens)
Sequence (P20813 whole entry): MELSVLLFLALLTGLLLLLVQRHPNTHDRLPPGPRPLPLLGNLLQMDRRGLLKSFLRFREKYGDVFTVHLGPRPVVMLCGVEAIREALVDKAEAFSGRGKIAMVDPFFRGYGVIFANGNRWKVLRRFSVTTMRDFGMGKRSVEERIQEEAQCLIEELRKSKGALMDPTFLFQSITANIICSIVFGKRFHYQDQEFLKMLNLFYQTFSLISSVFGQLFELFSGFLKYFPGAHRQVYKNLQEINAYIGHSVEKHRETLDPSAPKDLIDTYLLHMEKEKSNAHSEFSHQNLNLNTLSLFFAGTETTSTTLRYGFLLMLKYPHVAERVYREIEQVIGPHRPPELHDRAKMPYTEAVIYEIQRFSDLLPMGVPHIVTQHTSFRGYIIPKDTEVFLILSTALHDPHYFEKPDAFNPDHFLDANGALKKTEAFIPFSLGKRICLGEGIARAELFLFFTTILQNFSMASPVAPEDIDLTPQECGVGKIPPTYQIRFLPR
procedureDetails: in vitro
conditionSet: microsomes, pH 7.4
parameter: activity at 30 µM (%)
Write it as a number; the unit % goes unstated.

activity at 30 µM of S=P(N1CC1)(N1CC1)N1CC1 [Thio-TEPA] on CYP2B6 (Homo sapiens)? 26.7

---

procedureDetails: in vitro
conditionSet: human, Caco-2
parameter: Papp A→B

Consider the following illustrative entries.
{"compound": "O=C(O)CCCc1ccccc1 [PB, sodium phenylbutyrate]", "Papp A→B": "≤ 28.9 ×10⁻⁶ cm/s"}
{"compound": "O=C(O)Cc1ccccc1", "Papp A→B": "≥ 26.1 ×10⁻⁶ cm/s"}

API: the following record is the query input.
Data request, read-out Papp A→B, for C[C@H](CCC(=O)NCC(=O)O)[C@H]1CC[C@H]2[C@@H]3[C@@H](O)C[C@@H]4C[C@H](O)CC[C@]4(C)[C@H]3CC[C@]12C ≥ 2.4 ×10⁻⁶ cm/s

---

measuredTarget: CYP2C9 (Homo sapiens, UniProt P11712)
Sequence (P11712 whole entry): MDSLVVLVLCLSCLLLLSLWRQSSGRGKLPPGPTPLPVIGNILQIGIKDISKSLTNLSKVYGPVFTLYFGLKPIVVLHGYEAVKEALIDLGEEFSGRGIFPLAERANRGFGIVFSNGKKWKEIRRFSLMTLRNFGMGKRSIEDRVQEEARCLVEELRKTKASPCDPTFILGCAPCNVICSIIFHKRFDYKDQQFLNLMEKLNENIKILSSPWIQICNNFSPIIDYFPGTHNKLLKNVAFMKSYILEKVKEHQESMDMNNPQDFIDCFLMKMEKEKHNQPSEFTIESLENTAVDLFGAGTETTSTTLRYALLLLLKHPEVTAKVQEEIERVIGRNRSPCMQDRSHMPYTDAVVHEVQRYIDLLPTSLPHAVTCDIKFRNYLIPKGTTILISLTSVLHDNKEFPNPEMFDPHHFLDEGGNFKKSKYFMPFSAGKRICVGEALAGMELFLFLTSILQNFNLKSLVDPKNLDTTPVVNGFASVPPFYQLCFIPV
procedureDetails: Inhibition of CYP2C9 in human liver microsomes
conditionSet: pH 7.4
parameter: activity at 3.33 µM (%)
Write it as a number; the unit % goes unstated.

Data request, read-out activity at 3.33 µM, for Nc1ccc(S(=O)(=O)Nc2ccnn2-c2ccccc2)cc1 [Sulfaphenazole] 23.8

---

procedureDetails: in vitro
conditionSet: human, Caco-2
parameter: efflux ratio at 1 μM

Data request, read-out efflux ratio at 1 μM, for C[C@H](CCC(=O)NCC(=O)O)[C@H]1CC[C@H]2[C@@H]3[C@@H](O)C[C@@H]4C[C@H](O)CC[C@]4(C)[C@H]3CC[C@]12C [Glycoursodeoxycholic acid, glycoursodeoxycholic acid] 1.86

---

System: CYP2B6 mRNA
procedureDetails: CYP2B6 gene expression induction in hepatocyte cultures
conditionSet: read-out: EC50, CYP2B6 gene expression; Donor 2
parameter: pEC50
Just the number, please; pEC50 means minus log10 of the concentration in mol/L.

{"compound": "O=C(O)CCCc1ccccc1 [PB, sodium phenylbutyrate]", "pEC50": 3.97}

pEC50 of C[C@H](CCC(=O)NCC(=O)O)[C@H]1CC[C@H]2[C@@H]3[C@@H](O)C[C@@H]4C[C@H](O)CC[C@]4(C)[C@H]3CC[C@]12C on CYP2B6 mRNA? 5.86

---

Parameter: potency estimated from few doses. Scope: all listed entries.
measuredTarget: P-gp (Homo sapiens)
procedureDetails: Inhibitor of P-gp, 3H-digoxin efflux in Caco-2 cells
conditionSet: read-out: Estimated IC50, P-gp; estimated from two concentrations, Caco-2 cells

{"molecule": "C[C@H](CCC(=O)NCC(=O)O)[C@H]1CC[C@H]2[C@@H]3[C@@H](O)C[C@@H]4C[C@H](O)CC[C@]4(C)[C@H]3CC[C@]12C [Glycoursodeoxycholic acid, glycoursodeoxycholic acid]", "potency estimated from few doses": "< 0.01 mM"}

API: the following record is the query input.
Data request, read-out potency estimated from few doses, for O=C(O)Cc1ccccc1 [Phenylacetic acid, phenylacetic acid] > 7.5 mM

---

procedureDetails: in vivo
conditionSet: male, CD (Sprague-Dawley) IGS, rat, po, 840 mg/kg
parameter: Tmax

Data request, read-out Tmax, for O=C(O)CCCc1ccccc1 [PB, sodium phenylbutyrate] 15 to 30 min

---

System: CYP2B6 mRNA
procedureDetails: in vitro
conditionSet: human, hepatocyte cultures
parameter: EC50 at 72 h (nM)
Write it as a number; the unit nM goes unstated.

Data request, read-out EC50 at 72 h, for C[C@H](CCC(=O)NCC(=O)O)[C@H]1CC[C@H]2[C@@H]3[C@@H](O)C[C@@H]4C[C@H](O)CC[C@]4(C)[C@H]3CC[C@]12C 1740

---

measuredTarget: UniProt P20813
procedureDetails: in vitro
conditionSet: microsomes, pH 7.4
parameter: activity at 10 µM
A complete answer gives the number and then names the unit.

Data request, read-out activity at 10 µM, for S=P(N1CC1)(N1CC1)N1CC1 44.1%
